EXPERIMENTAL_DETAILS: Cytotoxicity against human hTERT-BJ cells assessed as cell viability at 1 uM incubated for 48 hrs by MTT based colorimetric assay
Format: toxicity
CONDITION_SUMMARY: read-out: Activity
OBSERVATION_TYPE: viability at 48 h, 1 µM (%)
Value expressed in %; do not type the unit.

Query :: Return reported viability at 48 h, 1 µM; argument: Cc1ccc(Cn2cc(C(=O)NCCOCCO)c(=O)c3cc(C(=O)/C=C/c4ccc([N+](=O)[O-])o4)ccc32)cc1
Result :: 118

* * *

EXPERIMENTAL_DETAILS: Cytotoxicity against human hTERT-BJ cells assessed as cell viability at 10 uM incubated for 48 hrs by MTT based colorimetric assay
Format: toxicity
CONDITION_SUMMARY: read-out: Activity
OBSERVATION_TYPE: viability at 48 h, 10 µM (%)
All answers are understood in %, so give the number only.

Query :: Any idea what its viability at 48 h, 10 µM is? The compound is Cc1ccc(Cn2cc(C(=O)NCCOCCO)c(=O)c3cc(C(=O)/C=C/c4ccc([N+](=O)[O-])o4)ccc32)cc1
Result :: 66
